system: M. tuberculosis H37Rv growth inhibition, no glycerol; assay: M. tuberculosis growth inhibition, confirmation, H37Rv, purified and synthesized compounds (AID 493181); settings: 90% growth inhibition concentration
Assign IC90 to each entry below.

In: Determine from records and report IC90 for O=C(CSc1nc2ccccc2c(=O)[nH]1)NC1CCCCC1
Out: < 200 nM

In: Determine from records and report IC90 for Cc1cccc(/C=C/C(=O)c2ccc([N+](=O)[O-])o2)c1
Out: < 200 nM

In: Determine from records and report IC90 for O=C(/C=C/c1ccccc1)N1CCN(CCN2C(=O)c3cccc4cccc(c34)C2=O)CC1
Out: > 100000 nM
